# target_entity: Histone deacetylase 8 (Homo sapiens)
# Sequence (Q9BY41 whole entry): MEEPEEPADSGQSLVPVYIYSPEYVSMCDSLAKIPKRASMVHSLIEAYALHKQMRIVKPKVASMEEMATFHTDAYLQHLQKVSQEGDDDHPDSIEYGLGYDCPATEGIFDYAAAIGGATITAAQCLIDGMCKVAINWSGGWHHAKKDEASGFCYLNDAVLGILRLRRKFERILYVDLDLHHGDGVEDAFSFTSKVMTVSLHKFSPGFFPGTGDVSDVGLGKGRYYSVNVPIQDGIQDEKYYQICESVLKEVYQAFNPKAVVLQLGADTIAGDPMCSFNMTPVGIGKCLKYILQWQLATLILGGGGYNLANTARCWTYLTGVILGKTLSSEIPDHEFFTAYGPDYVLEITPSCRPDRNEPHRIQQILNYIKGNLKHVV
# measurement_protocol: Inhibition of human full-length recombinant C-terminal His-tagged HDAC8 expressed in baculovirus infected Sf9 insect cells preincubated for 5 mins followed by HDAC substrate addition and further incubated for 45 mins by fluorescence microplate reader assay
// values below are reported log10 of IC50
In plain terms, each number is the log10 of measured IC50 in µM.

>  <smiles_repr>
Nc1ccccc1NC(=O)c1ccc(CSc2nnc(-c3ccncc3)n2-c2ccccc2)cc1

>  <target_entity>
Histone deacetylase 8 (Homo sapiens)

>  <log10 of IC50>
0.73

$$$$

Bench note, Histone deacetylase 8 (Homo sapiens): entry "CCn1c(SCCCCCC(=O)Nc2ccccc2N)nnc1-c1ccncc1" , its log10 of IC50 = 2.30

Bench note, Histone deacetylase 8 (Homo sapiens): entry "Cn1c(SCc2ccc(C(=O)Nc3ccccc3N)cc2)nnc1-c1ccncc1" , its log10 of IC50 = 0.89

Bench note, Histone deacetylase 8 (Homo sapiens): entry "C=CCn1c(SCCCCCC(=O)NO)nnc1-c1ccncc1" , its log10 of IC50 = 1.05

Bench note, Histone deacetylase 8 (Homo sapiens): entry "O=C(O)CCCCCSc1nnc(-c2ccncc2)n1-c1ccccc1" , its log10 of IC50 = 1.05

Bench note, Histone deacetylase 8 (Homo sapiens): entry "Cn1c(SCCCCCC(=O)Nc2ccccc2N)nnc1-c1ccncc1" , its log10 of IC50 = 0.86

* * *

# System: KG-1
# measurement_protocol: Growth inhibition of human KG-1 cells at 10 uM incubated for 24 hrs by MTT assay relative to control
# Format: functional
# condition_set: KG-1, 24 h
readout_name: inhibition in vitro at 10 µM (%)
The response must be a number in % with no trailing unit.

Recorded inhibition in vitro at 10 µM, per entry:
>  <smiles_repr>
Nc1ccccc1NC(=O)CCCCCSc1nnc(-c2ccncc2)n1-c1ccccc1

>  <unit_symbol>
%

>  <inhibition in vitro at 10 µM>
34.9

$$$$
>  <smiles_repr>
CCn1c(SCCCCCC(=O)Nc2ccccc2N)nnc1-c1ccncc1

>  <unit_symbol>
%

>  <inhibition in vitro at 10 µM>
3.64

$$$$
>  <smiles_repr>
Cn1c(SCCCCCC(=O)NO)nnc1-c1ccncc1

>  <unit_symbol>
%

>  <inhibition in vitro at 10 µM>
84.2

$$$$
>  <smiles_repr>
Cn1c(SCc2ccc(C(=O)NO)cc2)nnc1-c1ccncc1

>  <unit_symbol>
%

>  <inhibition in vitro at 10 µM>
72.1

$$$$
>  <smiles_repr>
Cn1c(SCCCCCC(=O)Nc2ccccc2N)nnc1-c1ccncc1

>  <unit_symbol>
%

>  <inhibition in vitro at 10 µM>
63.1

$$$$
>  <smiles_repr>
CCn1c(SCc2ccc(C(=O)Nc3ccccc3N)cc2)nnc1-c1ccncc1

>  <unit_symbol>
%

>  <inhibition in vitro at 10 µM>
5.91

$$$$
>  <smiles_repr>
C=CCn1c(SCc2ccc(C(=O)NO)cc2)nnc1-c1ccncc1

>  <unit_symbol>
%

>  <inhibition in vitro at 10 µM>
62

$$$$
>  <smiles_repr>
CCn1c(SCCCCCC(=O)O)nnc1-c1ccncc1

>  <unit_symbol>
%

>  <inhibition in vitro at 10 µM>
7.34

$$$$

Pending compound:
For this compound ( "C=CCn1c(SCCCCCC(=O)Nc2ccccc2N)nnc1-c1ccncc1" ), measured inhibition in vitro at 10 µM is 94.2
